These data points were gathered from patent US20230111853A1.

# Tested on: IKZF1, ASS1 and SALL4 recruitment to CRBN
# Assay Summary: Recruitment assessment: recruitment of any tested substrate from among IKZF1, ASS1 and SALL4
# Assay type: cell-based
# Setup Conditions: any tested substrate at any tested compound concentration
Measured Metric: Recruitment Assessment

molecule="Cc1cccc2c(=O)n(C3CCC(=O)NC3=O)nnc12 (stereo not drawn)" measured_metric="Recruitment Assessment" result=TRUE
molecule="CC(C)(C)OC(=O)CC1c2ccccc2C(=O)N1C1CCC(=O)NC1=O (stereo not drawn)" measured_metric="Recruitment Assessment" result=FALSE
molecule="O=C1CCC(N2Cc3c(cccc3-c3ccccc3)C2=O)C(=O)N1 (stereo not drawn)" measured_metric="Recruitment Assessment" result=TRUE
molecule="N#Cc1ccc(Nc2ccc3c(c2)CN(C2CCC(=O)NC2=O)C3=O)nn1 (stereo not drawn)" measured_metric="Recruitment Assessment" result=TRUE
molecule="O=C1CCC(N2Cc3cc(Nc4ncc5[nH]cnc5n4)ccc3C2=O)C(=O)N1 (stereo not drawn)" measured_metric="Recruitment Assessment" result=TRUE
molecule="C=CCC1c2ccccc2C(=O)N1C1CCC(=O)NC1=O (stereo not drawn)" measured_metric="Recruitment Assessment" result=FALSE
molecule="O=C(O)CNc1ccc2c(c1)C(=O)N(C1CCC(=O)NC1=O)C2 (stereo not drawn)" measured_metric="Recruitment Assessment" result=FALSE
molecule="O=C1CCC(N2C(=O)c3ccccc3C2OCc2ccccc2)C(=O)N1 (stereo not drawn)" measured_metric="Recruitment Assessment" result=FALSE
molecule="Cc1ccc2nnn(C3CCC(=O)NC3=O)c(=O)c2c1 (stereo not drawn)" measured_metric="Recruitment Assessment" result=TRUE
molecule="CC1CC(NC(=O)CNc2ccc3c(c2)C(=O)N(C2CCC(=O)NC2=O)C3)CCO1 (stereo not drawn)" measured_metric="Recruitment Assessment" result=FALSE
molecule="O=C1N=CC(N2C(=O)c3ccccc3C2=O)C(=O)N1 (stereo not drawn)" measured_metric="Recruitment Assessment" result=FALSE
molecule="O=C1CCC(N2C(=O)c3ccccc3C2NCc2ccccc2)C(=O)N1 (stereo not drawn)" measured_metric="Recruitment Assessment" result=TRUE
molecule="CC(=O)Nc1cccc2c1CN(C1CCC(=O)NC1=O)C2=O (stereo not drawn)" measured_metric="Recruitment Assessment" result=TRUE
molecule="NC(=O)CNc1ccc2c(c1)C(=O)N(C1CCC(=O)NC1=O)C2 (stereo not drawn)" measured_metric="Recruitment Assessment" result=FALSE
molecule="O=C1CCC(N2C(=O)c3ccccc3C2O)C(=O)N1 (stereo not drawn)" measured_metric="Recruitment Assessment" result=TRUE
molecule="O=C1CCC(N2Cc3cccc(-c4ccccc4)c3C2=O)C(=O)N1 (stereo not drawn)" measured_metric="Recruitment Assessment" result=FALSE
molecule="O=C1CCC(N2Cc3c(ccc4c3OCO4)C2=O)C(=O)N1 (stereo not drawn)" measured_metric="Recruitment Assessment" result=TRUE
molecule="Cl.NC1Cc2ccccc2C1=O (stereo not drawn) [C75987, 2-aminoindan-1-one; hydrochloride]" measured_metric="Recruitment Assessment" result=FALSE
molecule="Cc1cccc2c1C(=O)N(C1CCC(=O)NC1=O)C2 (stereo not drawn)" measured_metric="Recruitment Assessment" result=FALSE
molecule="Nc1cccc2nnn(C3CCC(=O)NC3=O)c(=O)c12 (stereo not drawn)" measured_metric="Recruitment Assessment" result=TRUE
molecule="Cc1cc2[nH]cnc(Nc3ccc4c(c3)C(=O)N(C3CCC(=O)NC3=O)C4)c-2n1 (stereo not drawn)" measured_metric="Recruitment Assessment" result=TRUE
molecule="O=C1CCC(N2Cc3c(Cl)cccc3C2=O)C(=O)N1 (stereo not drawn)" measured_metric="Recruitment Assessment" result=TRUE
molecule="Nc1cccc2c1C(=O)N(C1CCC(=O)NC1=O)C2 (stereo not drawn)" measured_metric="Recruitment Assessment" result=TRUE
molecule="COc1cccc2c1C(=O)N(C1CCC(=O)NC1=O)C2 (stereo not drawn)" measured_metric="Recruitment Assessment" result=FALSE
